- System: T-cell line
- assay: Tested for its effective dose required to inhibit the replication of HIV-1 in human T-cell line
- Format: functional
- experimental-setup: read-out: ED50 (the source's name)
readout-name: EC50 (nM)

Guide cases for EC50, answers given:
INSERT INTO measurements (molecule, readout_name, unit_symbol, meas_value) VALUES
  ('COC(=O)C(C)NP(=O)(OCC1OC(n2cc(C)c(=O)[nH]c2=O)CC1F)OCC(Cl)(Cl)Cl (stereo not given)', 'EC50', 'nM', 300),
  ('COC(=O)C(Cc1ccccc1)NP(=O)(NC(Cc1ccccc1)C(=O)OC)OCC1OC(n2cc(C)c(=O)[nH]c2=O)CC1F (stereo not given)', 'EC50', 'nM', 5000),
  ('COC(=O)C(NP(=O)(OCC1OC(n2cc(C)c(=O)[nH]c2=O)CC1F)OCC(Cl)(Cl)Cl)C(C)C (stereo not given)', 'EC50', 'nM', 300);

[1] Cc1cn([C@H]2C[C@H](F)[C@@H](CO)O2)c(=O)[nH]c1=O
[2] Cc1cn(C2CC(F)C(COP(=O)(OCC(Cl)(Cl)Cl)OCC(Cl)(Cl)Cl)O2)c(=O)[nH]c1=O (stereo not given)
Input: Between 1 and 2 , whose recorded EC50 is greater? Provide the label of your selected option as the answer.
Output: 2
(2: 10 nM, 1: 5 nM)

---

- assay: Tested for the cytotoxicity against HIV-1 in human T-cell line
- Assay type: cell-based
- experimental-setup: read-out: TD50 (the source's name)
readout-name: CC50 (µM)
Output spec: scalar in µM, unitless text.

INSERT INTO assay_data (compound, unit_symbol, meas_value) VALUES
  ('Cc1cn([C@H]2C[C@H](F)[C@@H](CO)O2)c(=O)[nH]c1=O', 'µM', 100);

// sample Cc1cn(C2CC(F)C(COP(=O)(OCC(Cl)(Cl)Cl)OCC(Cl)(Cl)Cl)O2)c(=O)[nH]c1=O (stereo not given) , its CC50 was 100

---

Some compounds, each annotated with its measured CC50.
- assay: Tested for the cytotoxicity against HIV-1 in human T-cell line
- Type: cell-based
- experimental-setup: read-out: TD50 (the source's name)

Worked cases, CC50 given:
INSERT INTO measurements (compound, readout_name, meas_value) VALUES
  ('COC(=O)C(NP(=O)(OCC1OC(n2cc(C)c(=O)[nH]c2=O)CC1F)OCC(Cl)(Cl)Cl)C(C)C (stereo not drawn)', 'CC50', '> 100 µM'),
  ('COC(=O)C(C)NP(=O)(OCC1OC(n2cc(C)c(=O)[nH]c2=O)CC1F)OCC(Cl)(Cl)Cl (stereo not drawn)', 'CC50', '> 100 µM');

Then there is this compound:
Noted for COC(=O)C(Cc1ccccc1)NP(=O)(NC(Cc1ccccc1)C(=O)OC)OCC1OC(n2cc(C)c(=O)[nH]c2=O)CC1F (stereo not drawn) : its CC50 reads > 100 µM
